Test: Tigecycline plasma PK after IV bolus in anesthetized rats
Type: in vivo
Details: female, Sprague-Dawley, rat, IV bolus 0.64 mg/kg, PBS (RA851)
parameter.measured: Cmax (ng/mL)
Numbers only; they are read as ng/mL.

Value lookup for Cmax; key = `CN(C)c1cc(NC(=O)CNC(C)(C)C)c(O)c2c1C[C@H]1C[C@H]3[C@H](N(C)C)C(O)=C(C(N)=O)C(=O)[C@@]3(O)C(O)=C1C2=O` 1790

----------
Experiment: Tigecycline plasma PK after IV bolus in anesthetized rats
Format: in vivo
Details: female, Sprague-Dawley, rat, IV bolus 0.64 mg/kg, PBS (RA851), 0 min
parameter.measured: concentration at 0 min (ng/mL)
Field: numeric (ng/mL). Do not append units.

Bench note: what concentration at 0 min did `CN(C)c1cc(NC(=O)CNC(C)(C)C)c(O)c2c1C[C@H]1C[C@H]3[C@H](N(C)C)C(O)=C(C(N)=O)C(=O)[C@@]3(O)C(O)=C1C2=O` show? 0

----------
Test: Tigecycline plasma PK and % F after PO enteric-coated capsule in dogs
Format: in vivo, Beagle dogs
Settings: female, beagle, dog, plasma, po, 15 mg, Study 1 (SC424); 15 mg Unformulated enteric coated capsule (microcrystalline cellulose filler), oral, dogs, N=8; based on that study's IV arm; read-out: % F
parameter.measured: bioavailability (%)
Report as a plain number; the unit % is understood.

Entry under review: `CN(C)c1cc(NC(=O)CNC(C)(C)C)c(O)c2c1C[C@H]1C[C@H]3[C@H](N(C)C)C(O)=C(C(N)=O)C(=O)[C@@]3(O)C(O)=C1C2=O` . Reported bioavailability? 0

----------
Assay: Kanamycin and tobramycin plasma PK after IV bolus in dogs
Format: in vivo, Beagle dogs
Details: female, Beagle, dog, plasma, iv, 0.1 mg, single IV bolus 0.10 mg; 30 min
Description: Adult Beagle dogs weighing approximately 10 to 15 kg were used in the study. The animals were housed at Sinclair Research Center, Columbia, Mo. either individually or in pairs in over-sized dog runs. […] A 12-hour light/12-hour dark photoperiod was maintained. Room temperature was set to be maintained at 20±5° C. Relative humidity was monitored but not controlled. Animal room and pen cleaning were performed according to the testing facility (Sinclair) SOPs. […]
parameter.measured: concentration at 30 min (ng/mL)
Give the value in ng/mL but do not write ng/mL after it.

// concentration at 30 min lookup, key: NC[C@H]1O[C@H](O[C@H]2[C@H](O)[C@@H](O[C@H]3O[C@H](CO)[C@@H](O)[C@H](N)[C@H]3O)[C@H](N)C[C@@H]2N)[C@H](O)[C@@H](O)[C@@H]1O [Kanamycin] 34.6

----------
Assay: Tigecycline plasma PK and % F after PO enteric-coated capsule in dogs
Format: in vivo, Beagle dogs
Conditions: female, beagle, dog, plasma, po, 15 mg, Tigecycline Plasma Concentration, 210 min; PO 15 mg unformulated enteric-coated capsule, SC424; mean
parameter.measured: concentration at 210 min (ng/mL)
Report only the number, with the unit ng/mL understood.

I'd like to know its concentration at 210 min. The compound in question is `CN(C)c1cc(NC(=O)CNC(C)(C)C)c(O)c2c1C[C@H]1C[C@H]3[C@H](N(C)C)C(O)=C(C(N)=O)C(=O)[C@@]3(O)C(O)=C1C2=O` 0

----------
Experiment: Tigecycline plasma PK and % F after intraduodenal (ID) injection in anesthetized rats
Type: in vivo, Sprague-Dawley Rats
Conditions: female, Sprague-Dawley, rat, plasma, 9 mg/kg, pH 3.5, ID, 400 mM CA (pH 3.5), 26 mM LLC, 9.0 mg/kg (RA853), parent Tigecycline peak only; read-out: Cmax, Mean
parameter.measured: Cmax (ng/mL)
Give just the number in ng/mL; leave the unit off.

Request the reported Cmax associated with `CN(C)c1cc(NC(=O)CNC(C)(C)C)c(O)c2c1C[C@H]1C[C@H]3[C@H](N(C)C)C(O)=C(C(N)=O)C(=O)[C@@]3(O)C(O)=C1C2=O` 2490

----------
Experiment: Tigecycline plasma PK after IV bolus in dogs
Format: in vivo, Beagle dogs
Conditions: female, beagle, dog, plasma, intravenous, 5 mg, Tigecycline Plasma Concentration, 15 min; 5 mg IV in PBS ([…]), SC431; individual dogs
parameter.measured: concentration at 15 min (ng/mL)
State just the number; it will be interpreted in ng/mL.

Quick one: concentration at 15 min of `CN(C)c1cc(NC(=O)CNC(C)(C)C)c(O)c2c1C[C@H]1C[C@H]3[C@H](N(C)C)C(O)=C(C(N)=O)C(=O)[C@@]3(O)C(O)=C1C2=O` ? 122

----------
Assay: Tigecycline plasma PK and % F after PO enteric-coated capsule in dogs
Type: in vivo, Beagle dogs
Conditions: female, beagle, dog, plasma, po, 15 mg, Study 1 (SC424); 15 mg Formulated enteric coated capsule (500 mg citric acid, 100 mg LLC), oral, dogs, N=8; mean (% CV); based on that study's IV arm; read-out: % F
parameter.measured: bioavailability (%)
Supply the numeric figure in %, leaving out any unit text.

Would you kindly share the measured bioavailability for `CN(C)c1cc(NC(=O)CNC(C)(C)C)c(O)c2c1C[C@H]1C[C@H]3[C@H](N(C)C)C(O)=C(C(N)=O)C(=O)[C@@]3(O)C(O)=C1C2=O` ? 12.2

----------
Test: Tigecycline plasma PK and % F after intraduodenal (ID) injection in anesthetized rats
Assay type: in vivo, Sprague-Dawley Rats
Details: female, Sprague-Dawley, rat, plasma, other: intraduodenal bolus injection, 4.8 mg/kg, pH 3.5, ID, 400 mM CA (pH 3.5), 26 mM LLC, 4.8 mg/kg (RA851), parent Tigecycline peak only; 10 min
parameter.measured: concentration at 10 min (µg/mL)
Value expressed in µg/mL; do not type the unit.

Please report the recorded concentration at 10 min for CN(C)c1cc(NC(=O)CNC(C)(C)C)c(O)c2c1C[C@H]1C[C@H]3[C@H](N(C)C)C(O)=C(C(N)=O)C(=O)[C@@]3(O)C(O)=C1C2=O [Tigecycline] . 0.92

----------
Assay: Tigecycline plasma PK and % F after PO enteric-coated capsule in dogs
Type: in vivo, Beagle dogs
Conditions: female, beagle, dog, plasma, po, 30 mg, Tigecycline Plasma Concentration, 5.0 hr; PO 30 mg unformulated enteric-coated capsule, SC430; individual dogs
parameter.measured: concentration at 5 hr (ng/mL)
Give a bare numeral; the unit ng/mL is implied.

Would you mind telling me what concentration at 5 hr value was observed for `CN(C)c1cc(NC(=O)CNC(C)(C)C)c(O)c2c1C[C@H]1C[C@H]3[C@H](N(C)C)C(O)=C(C(N)=O)C(=O)[C@@]3(O)C(O)=C1C2=O` ? 0

----------
Test: Tigecycline plasma PK and % F after PO enteric-coated capsule in dogs
Type: in vivo, Beagle dogs
Conditions: female, beagle, dog, plasma, po, 30 mg, Tigecycline Plasma Concentration, 10.0 hr; PO 30 mg unformulated enteric-coated capsule, SC430; individual dogs
parameter.measured: concentration at 10 hr (ng/mL)
Kindly provide the numeric value in ng/mL only, without the unit symbol.

What does the record list as concentration at 10 hr for `CN(C)c1cc(NC(=O)CNC(C)(C)C)c(O)c2c1C[C@H]1C[C@H]3[C@H](N(C)C)C(O)=C(C(N)=O)C(=O)[C@@]3(O)C(O)=C1C2=O` ? 0

----------
Experiment: Tigecycline plasma PK and % F after PO enteric-coated capsule in dogs
Type: in vivo, Beagle dogs
Details: female, beagle, dog, plasma, po, 30 mg, Tigecycline Plasma Concentration, Time (min) 2.3; PO 30 mg enteric-coated capsule with 500 mg CA and 100 mg LLC, SC430; mean
Description: Adult beagle dogs weighing approximately 9 to 15 kg were used in the study. […] Room temperature was set to be maintained between approximately 20±5° C. Relative humidity was monitored but not controlled. […] The unknown concentration in dog plasma samples was determined by interpolation of the peak area ratios of analyte:internal standard versus the ratio of their nominal concentrations into the regression line obtained from calibration standards spiked in pooled dog plasma. […]
parameter.measured: concentration at […] (ng/mL)
Give the value in ng/mL but do not write ng/mL after it.

I would be grateful if you could share the reported concentration at […] for `CN(C)c1cc(NC(=O)CNC(C)(C)C)c(O)c2c1C[C@H]1C[C@H]3[C@H](N(C)C)C(O)=C(C(N)=O)C(=O)[C@@]3(O)C(O)=C1C2=O` . 72.1

----------
Experiment: Kanamycin and tobramycin plasma PK after IV bolus in dogs
Assay type: in vivo, Beagle dogs
Settings: female, Beagle, dog, plasma, iv, 0.1 mg, single IV bolus 0.10 mg; 0 min; read-out: Plasma Concentration, individual dogs
parameter.measured: concentration at 0 min (ng/mL)
Return type: number; implicit unit ng/mL.

Please report the recorded concentration at 0 min for NC[C@H]1O[C@H](O[C@H]2[C@H](O)[C@@H](O[C@H]3O[C@H](CO)[C@@H](O)[C@H](N)[C@H]3O)[C@H](N)C[C@@H]2N)[C@H](O)[C@@H](O)[C@@H]1O [Kanamycin] . 0
